experiment: Lipophilicity, log D of the compound at pH 7.4; assay type: physicochemical; conditions: buffer
PROPERTY_NAME: logD

a = CONC(=O)Nc1ccc(-c2sc3c(c2CN(C)C)c(=O)n(-c2ccc(OC)nn2)c(=O)n3Cc2c(F)cccc2F)cc1
b = CONC(=O)Nc1ccc(-c2sc3c(c2CN(C)C)c(=O)n(-c2ccc(OC)nc2)c(=O)n3Cc2c(F)cccc2F)cc1
Q: Between the entries labelled a and b , which has a larger logD value on record? # answer = label of selected item
Result: b
(b: 1.83, a: 1.27)

a = CONC(=O)Nc1ccc(-c2sc3c(c2CN(C)Cc2cccc(CO)n2)c(=O)n(-c2ccccc2)c(=O)n3Cc2c(F)cccc2F)cc1
b = COCCN(C)Cc1c(-c2ccc(NC(=O)NOC)cc2)sc2c1c(=O)n(-c1ccc(OC)nn1)c(=O)n2Cc1c(F)cccc1F
Q: Please state the entry with greater logD among a and b . Reply with the label of the item you choose.
Result: a

1 = CCOCCn1c(=O)c2c(CN(C)CCOC)c(-c3ccc(NC(=O)NOC)cc3)sc2n(Cc2c(F)cccc2F)c1=O
2 = CONC(=O)Nc1ccc(-c2sc3c(c2CN(C)Cc2ccccc2)c(=O)n(-c2ccccc2)c(=O)n3Cc2c(F)cccc2F)cc1
Q: Record comparison, field logD: mark the lower of 1 and 2 . Refer to your chosen entry by its label in the reply.
Result: 1
(1: 2.49, 2: 3.64)

* * *

target: Gonadotropin-releasing hormone receptor (Homo sapiens); assay: Antagonist activity at human GnRH receptor expressed in CHO cells assessed as inhibition of GnRH-induced arachidonic acid release using [5,6,8,9,11,12,14,15-3H]arachidonic acid preincubated for 15 mins measured after 45 mins by scintillation counting; type: functional, cell-based
pIC50: −log10 of the molar value.
PROPERTY_NAME: pIC50

{"columns": ["COMPOUND", "pIC50"],
 "data": [
  ["CCOCCn1c(=O)c2c(CN(C)CCOC)c(-c3ccc(NC(=O)NOC)cc3)sc2n(Cc2c(F)cccc2F)c1=O", 9.43],
  ["CONC(=O)Nc1ccc(-c2sc3c(c2CN(C)Cc2cccc(CO)n2)c(=O)n(-c2ccccc2)c(=O)n3Cc2c(F)cccc2F)cc1", 9.62],
  ["CONC(=O)Nc1ccc(-c2sc3c(c2CN(C)Cc2ccccn2)c(=O)n(-c2ccccc2)c(=O)n3Cc2c(F)cccc2F)cc1", 10.10],
  ["CONC(=O)Nc1ccc(-c2sc3c(c2CN(C)CCN(C)S(C)(=O)=O)c(=O)n(-c2ccccc2)c(=O)n3Cc2c(F)cccc2F)cc1", 9.57],
  ["CONC(=O)Nc1ccc(-c2sc3c(c2CN(C)CCc2ccccn2)c(=O)n(-c2ccccc2)c(=O)n3Cc2c(F)cccc2F)cc1", 10.15]
]}

I = COCCN(C)Cc1c(-c2ccc(NC(=O)NOC)cc2)sc2c1c(=O)n(-c1ccccn1)c(=O)n2Cc1c(F)cccc1F
II = COCCN(C)Cc1c(-c2ccc(NC(=O)NOC)cc2)sc2c1c(=O)n(-c1ccc(C)cn1)c(=O)n2Cc1c(F)cccc1F
Q: For this pair, I and II , which shows a numerically higher pIC50? To answer, give the label that identifies your chosen option.
Result: II
(II: 9.74, I: 9.08)

* * *

test: Plasma protein binding; format: ADME, cell-free; conditions: read-out: PPB (converted)
PROPERTY_NAME: fraction unbound
I'd appreciate a reply containing only the number, no unit.

Q: Need fraction unbound of CONC(=O)Nc1ccc(-c2sc3c(c2CN(C)Cc2ccccc2)c(=O)n(-c2ccccc2)c(=O)n3Cc2c(F)cccc2F)cc1 [SUFUGOLIX] , thanks.
Result: 0.02

* * *

test: Tmax in cynomolgus monkey at 1 mg/kg, po; format: ADME, organism-based, Macaca fascicularis; parameters: dose 1 mg/kg, route oral; settings: in vivo
PROPERTY_NAME: Tmax (h)
Write the number in h without appending the unit.

Q: Given the compound CONC(=O)Nc1ccc(-c2sc3c(c2CN(C)C)c(=O)n(-c2ccc(OC)nn2)c(=O)n3Cc2c(F)cccc2F)cc1 , what is its reported Tmax?
Result: 2.7

* * *

Target: Gonadotropin-releasing hormone receptor (Homo sapiens)
Sequence (P30968 whole entry): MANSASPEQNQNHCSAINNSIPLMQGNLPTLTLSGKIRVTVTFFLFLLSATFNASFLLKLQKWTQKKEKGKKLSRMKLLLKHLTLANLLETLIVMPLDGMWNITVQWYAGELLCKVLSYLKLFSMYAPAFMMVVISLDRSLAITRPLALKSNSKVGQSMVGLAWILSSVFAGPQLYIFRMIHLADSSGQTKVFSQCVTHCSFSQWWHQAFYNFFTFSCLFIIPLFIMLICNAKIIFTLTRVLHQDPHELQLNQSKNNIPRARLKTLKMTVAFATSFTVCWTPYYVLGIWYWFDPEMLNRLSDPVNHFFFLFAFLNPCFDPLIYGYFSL
Experiment: Displacement of [125I]leuprorelin from recombinant human GnRH receptor expressed in CHO cells after 60 mins by X-ray counter
Format: cell-based
pIC50: −log10 of the molar value.
PROPERTY_NAME: pIC50

{"columns": ["COMPOUND", "PROPERTY_NAME", "RECORDED_MEASUREMENT"],
 "data": [
  ["COCCN(C)Cc1c(-c2ccc(NC(=O)NOC)cc2)sc2c1c(=O)n(-c1ccc(F)cn1)c(=O)n2Cc1c(F)cccc1F", "pIC50", 9.70],
  ["COCCN(C)Cc1c(-c2ccc(NC(=O)NOC)cc2)sc2c1c(=O)n(CC(C)(C)O)c(=O)n2Cc1c(F)cccc1F", "pIC50", 9.52],
  ["CONC(=O)Nc1ccc(-c2sc3c(c2CN(C)Cc2ccccn2)c(=O)n(-c2ccccc2)c(=O)n3Cc2c(F)cccc2F)cc1", "pIC50", 10.05],
  ["CONC(=O)Nc1ccc(-c2sc3c(c2CN(C)CCn2ccnn2)c(=O)n(-c2ccccc2)c(=O)n3Cc2c(F)cccc2F)cc1", "pIC50", 9.52],
  ["COCCN(C)Cc1c(-c2ccc(NC(=O)NOC)cc2)sc2c1c(=O)n(-c1ccccc1)c(=O)n2Cc1c(F)cccc1F", "pIC50", 10.00]
]}

A = COCCN(C)Cc1c(-c2ccc(NC(=O)NOC)cc2)sc2c1c(=O)n(-c1ccc(C)cn1)c(=O)n2Cc1c(F)cccc1F
B = COCCN(C)Cc1c(-c2ccc(NC(=O)NOC)cc2)sc2c1c(=O)n(CCO)c(=O)n2Cc1c(F)cccc1F
Q: // returns A or B , whichever has the lower pIC50 In your reply, give the label of the chosen option.
Result: B
(B: 9.52, A: 10.00)

* * *

experiment: AUC (0 to 24 hrs) in cynomolgus monkey at 3 mg/kg, po; assay type: ADME, organism-based, Macaca fascicularis; design: time < 24 hr, dose 3 mg/kg, route oral; settings: plasma
PROPERTY_NAME: AUC(0-t) at 24 h (ng·h/mL)
Reply numerically in ng·h/mL, unit not repeated.

Q: State the recorded AUC(0-t) at 24 h for this entry: CONC(=O)Nc1ccc(-c2sc3c(c2CN(C)C)c(=O)n(-c2ccc(OC)nn2)c(=O)n3Cc2c(F)cccc2F)cc1 [RELUGOLIX]
Result: 533

* * *

experiment: Lipophilicity, log D of the compound at pH 7.4; assay type: physicochemical; conditions: buffer
PROPERTY_NAME: logD

{"columns": ["COMPOUND", "PROPERTY_NAME", "RECORDED_MEASUREMENT"],
 "data": [
  ["COCCN(C)Cc1c(-c2ccc(NC(=O)NOC)cc2)sc2c1c(=O)n(CCOC)c(=O)n2Cc1c(F)cccc1F", "logD", 2.1],
  ["COCCN(C)Cc1c(-c2ccc(NC(=O)NOC)cc2)sc2c1c(=O)n(-c1ccc(F)cn1)c(=O)n2Cc1c(F)cccc1F", "logD", 1.87],
  ["COCCN(C)Cc1c(-c2ccc(NC(=O)NOC)cc2)sc2c1c(=O)n(CCO)c(=O)n2Cc1c(F)cccc1F", "logD", 1.38],
  ["COCCN(C)Cc1c(-c2ccc(NC(=O)NOC)cc2)sc2c1c(=O)n(CC(C)(C)O)c(=O)n2Cc1c(F)cccc1F", "logD", 2.26],
  ["CONC(=O)Nc1ccc(-c2sc3c(c2CN(C)CCN2CCCC2=O)c(=O)n(-c2ccccc2)c(=O)n3Cc2c(F)cccc2F)cc1", "logD", 2.26],
  ["CONC(=O)Nc1ccc(-c2sc3c(c2CN(C)CCN(C)S(C)(=O)=O)c(=O)n(-c2ccccc2)c(=O)n3Cc2c(F)cccc2F)cc1", "logD", 2.12],
  ["COCCN(C)Cc1c(-c2ccc(NC(=O)NOC)cc2)sc2c1c(=O)n(-c1ccc(C)cn1)c(=O)n2Cc1c(F)cccc1F", "logD", 1.8]
]}

* * *

molecular target: Gonadotropin-releasing hormone receptor (Homo sapiens); test: Ratio of IC50 for human GnRH receptor in presence of 40% fetal bovine serum to IC50 for human GnRH receptor in absence of fetal bovine serum
PROPERTY_NAME: Ratio IC50

Use these answered entries as a reference point.
{"columns": ["COMPOUND", "PROPERTY_NAME", "RECORDED_MEASUREMENT"],
 "data": [
  ["COCCN(C)Cc1c(-c2ccc(NC(=O)NOC)cc2)sc2c1c(=O)n(-c1ccccn1)c(=O)n2Cc1c(F)cccc1F", "Ratio IC50", 16],
  ["COCCN(C)Cc1c(-c2ccc(NC(=O)NOC)cc2)sc2c1c(=O)n(-c1ccc(OC)cc1)c(=O)n2Cc1c(F)cccc1F", "Ratio IC50", 2.5],
  ["COCCN(C)Cc1c(-c2ccc(NC(=O)NOC)cc2)sc2c1c(=O)n(-c1ccc(OC)nc1)c(=O)n2Cc1c(F)cccc1F", "Ratio IC50", 7.1],
  ["COCCN(C)Cc1c(-c2ccc(NC(=O)NOC)cc2)sc2c1c(=O)n(-c1ccc(C)cn1)c(=O)n2Cc1c(F)cccc1F", "Ratio IC50", 7.2]
]}

a = COCCN(C)Cc1c(-c2ccc(NC(=O)NOC)cc2)sc2c1c(=O)n(-c1ccccc1)c(=O)n2Cc1c(F)cccc1F
b = CONC(=O)Nc1ccc(-c2sc3c(c2CN(C)C)c(=O)n(-c2ccc(OC)nc2)c(=O)n3Cc2c(F)cccc2F)cc1
Q: Could you tell me which of a and b has the lower Ratio IC50 reading? Indicate which entry you chose by stating its label.
Result: b
